Test system: NCI-H292 lung cancer cells
assay-notes: FDA drug screening, complete media vs cholesterol-free media without statin (TABLE 1)
Type: cell-based, human
details: complete vs cholesterol-free media; […]
Reported Difference is given for each of the following compounds.

# compound, Difference
rows = [
    ("C=C1C[C@H]2[C@@H]3CCC4=CC(=O)CC[C@@H]4[C@H]3CC[C@]2(C)[C@@]1(OC(C)=O)C(C)=O", "−0.39"),
    ("Cc1ccc([C@@H]2O[C@H](CO)[C@@H](O)[C@H](O)[C@H]2O)cc1Cc1ccc(-c2ccc(F)cc2)s1", "−0.34"),
    ("CN1C(=O)C[C@@H](C(=O)N[C@@H](Cc2c[nH]cn2)C(=O)N2CCC[C@H]2C(N)=O)NC1=O", "−0.43"),
]

Read the next record carefully.
State its Difference: C[N+](C)(C)C[C@H](O)CC(=O)[O-].Cl [L-Carnitine (hydrochloride)]
−0.31

###

Reported Difference is given for each of the following molecules.
System: NCI-H292 lung cancer cells
assay-notes: FDA drug screening, complete media vs cholesterol-free media without statin (TABLE 1)
Type: cell-based, human
details: Complete minus Cholesterol-free; greater than 0 enhanced anti-cancer activity, about 0 neutral, below 0 antagonists
Structures can show the parent of a compound that is named as a salt.
Simply state the number, no unit and no words.

Please review the entries below; each comes with its answer.
# molecule, measured-property, numeric-readout
records = [
    ("CCN(CCO)CCCC(C)Nc1ccnc2cc(Cl)ccc12 (centres unmarked) [Hydroxychloroquine sulfate]", "Difference", "−0.72"),
    ("COC(=O)C1=C(C)NC(C)=C(C(=O)OC)C1c1ccccc1[N+](=O)[O-]", "Difference", "−0.53"),
    ("COC(=O)CCC(=O)CN [Methyl aminolevulinate (hydrochloride)]", "Difference", "−0.59"),
    ("CNC(=C[N+](=O)[O-])NCCSCc1ccc(CN(C)C)o1 [Ranitidine (hydrochloride)]", "Difference", "−0.55"),
    ("O=C(O)c1ccccc1OP(=O)(O)O", "Difference", "−0.51"),
    ("COC1=CC(=O)C[C@@H](C)[C@]12Oc1c(Cl)c(OC)cc(OC)c1C2=O", "Difference", "−0.63"),
    ("Cc1nnc(SCC2=C(C(=O)O)N3C(=O)[C@@H](NC(=O)Cn4cnnn4)[C@H]3SC2)s1", "Difference", "−0.54"),
]

Read the next record carefully.
State its Difference: Cc1cccc(C)c1NC(=O)C1CCCCN1C (centres unmarked) [Mepivacaine (hydrochloride)]
−0.61

###

Tested on: NCI-H292 lung cancer cells
assay-notes: FDA drug screening, complete media vs cholesterol-free media without statin (TABLE 1)
Format: cell-based, human
details: NCI-H292 cells, complete media, FDA drug library screen
Counter-ions that a name gives are not always drawn.
measured-property: Complete
Simply state the number, no unit and no words.

Please review the entries below; each comes with its answer.
# compound, numeric-readout
measured = [
    ("CCCN[C@H]1CCc2nc(N)sc2C1 [Pramipexole (dihydrochloride hydrate)]", 0.873),
    ("CC(C)N1CCN(c2ccc(OCC3COC(Cn4cncn4)(c4ccc(Cl)cc4Cl)O3)cc2)CC1 (centres unmarked)", 1.158),
    ("CC(C)[C@H]1CC[C@H](C(=O)N[C@H](Cc2ccccc2)C(=O)O)CC1 [Nateglinide]", 1.887),
]

State its Complete: C#Cc1cccc(Nc2ncnc3cc4c(cc23)OCCOCCOCCO4)c1 [Icotinib (Hydrochloride)]
0.324

State its Complete: CC[C@H]1[C@@H](O)[C@@H]2[C@H](CC[C@]3(C)[C@@H]([C@H](C)CCC(=O)O)CC[C@@H]23)[C@@]2(C)CC[C@@H](O)C[C@@H]12
0.9124

State its Complete: O=C(CNC(=O)c1ccc(C2=NOC(c3cc(Cl)cc(C(F)(F)F)c3)(C(F)(F)F)C2)c2ccccc12)NCC(F)(F)F (centres unmarked)
1.19

State its Complete: O=C(O)/C=C/c1ccc(Cn2ccnc2)cc1
1.034

State its Complete: Cc1cc(C(=O)NNCc2ccccc2)no1
1.428

State its Complete: CN(C)CCCC1(c2ccc(F)cc2)OCc2cc(C#N)ccc21 (centres unmarked) [Citalopram (hydrobromide)]
1.106

State its Complete: CC/C(=C(\c1ccccc1)c1ccc(OCCN(C)C)cc1)c1ccccc1
0.7069

State its Complete: CC1=C(C(=O)O)N2C(=O)[C@@H](NC(=O)[C@H](N)C3=CCC=CC3)[C@H]2SC1
1.756

State its Complete: COc1ccc(C(=O)N2CCN(c3ccc4c(c3)CCC(=O)N4)CC2)cc1OC
1.197

State its Complete: CN[C@@H]1[C@H](O)[C@H](NC)[C@H]2O[C@@]3(O)C(=O)C[C@@H](C)O[C@H]3O[C@@H]2[C@H]1O [Spectinomycin (dihydrochloride)]
1.077

State its Complete: CC1(C)S[C@@H]2[C@H](NC(=O)[C@H](N)c3ccc(O)cc3)C(=O)N2[C@H]1C(=O)O [Amoxicillin (trihydrate)]
0.9771

State its Complete: O=C(C[S+]([O-])Cc1ccco1)NC/C=C\COc1cc(CN2CCCCC2)ccn1 (centres unmarked)
1.371

State its Complete: C[S+](CC[C@H](N)C(=O)O)C[C@H]1O[C@@H](n2cnc3c(N)ncnc32)[C@H](O)[C@@H]1O.Cc1ccc(S(=O)(=O)[O-])cc1 (stereo partly drawn) [S-Adenosyl-L-methionine (tosylate)]
1.043

State its Complete: NC(=O)c1cn(Cc2c(F)cccc2F)nn1 [Rufinamide]
0.9785

State its Complete: CN(C)[C@@H]1C(O)=C(C(N)=O)C(=O)[C@@]2(O)C(O)=C3C(=O)c4c(O)cccc4[C@@](C)(O)[C@H]3[C@H](O)[C@@H]12
1.086

State its Complete: CCN(CC)CCNC(=O)c1ccc(NC(C)=O)cc1 [N-Acetylprocainamide]
1.656

State its Complete: Cc1cc(/C=C/C#N)cc(C)c1Nc1ccnc(Nc2ccc(C#N)cc2)n1
0.8865

###

Tested on: NCI-H292 lung cancer cells
assay-notes: FDA drug screening, complete media vs cholesterol-free media without statin (TABLE 1)
Type: cell-based, human
details: complete vs cholesterol-free media; >0 enhanced anti-cancer activity, about 0 neutral, <0 antagonist
Counter-ions that a name gives are not always drawn.
Reported Difference is given for each of the following compounds.
Simply state the number, no unit and no words.

# compound, numeric-readout
data = [
    ("CCN1CCN(C(=O)N[C@@H](C(=O)N[C@@H]2C(=O)N3C(C(=O)O)=C(CSc4nnnn4C)CS[C@H]23)c2ccc(O)cc2)C(=O)C1=O [Cefoperazone (sodium salt)]", 0.17),
]

State its Difference: CN1CCc2nc(C(=O)N[C@@H]3C[C@@H](C(=O)N(C)C)CC[C@@H]3NC(=O)C(=O)Nc3ccc(Cl)cn3)sc2C1
0.16

State its Difference: CC(=O)OCC(=O)[C@@]12N=C(C)O[C@@H]1C[C@H]1[C@@H]3CCC4=CC(=O)C=C[C@]4(C)[C@H]3[C@@H](O)C[C@@]12C
0.14

State its Difference: C[C@@H](Oc1cc(-c2cnn(C3CCNCC3)c2)cnc1N)c1c(Cl)ccc(F)c1Cl [Crizotinib (hydrochloride)]
0.10

State its Difference: C[C@H](Cn1cnc2c(N)ncnc21)OCP(=O)(O)O.O [Tenofovir (hydrate)]
0.40

State its Difference: COC(=O)Nc1nc2cc(C(=O)c3ccc(F)cc3)ccc2[nH]1
0.56

State its Difference: CCn1cc(C(=O)O)c(=O)c2cc(F)c(N3CCNCC3)cc21
0.08

###

Test system: NCI-H292 lung cancer cells
assay-notes: FDA drug screening, complete media vs cholesterol-free media without statin (TABLE 1)
Assay type: cell-based, human
details: complete vs cholesterol-free media; greater than 0 enhanced anti-cancer activity, about 0 neutral, below 0 antagonists
Structures can show the parent of a compound that is named as a salt.
Exam item: assign true to entries whose Difference is below -0.4 and false to entries at or above -0.4. Note that a value of exactly -0.4 receives false.

# compound, assigned-label
measured = [
    ("O=c1n(CCCN2CCN(c3cccc(Cl)c3)CC2)nc2ccccn12 [Trazodone (hydrochloride)]", "false"),
    ("CC(COc1ccccc1)NC(C)C(O)c1ccc(O)cc1 (centres unmarked) [Isoxsuprine hydrochloride]", "false"),
    ("O=C1c2c(O)cccc2Cc2cccc(O)c21 [Dithranol]", "false"),
    ("CCCCOc1ccc(C(=O)CCN2CCCCC2)cc1 [Dyclonine (hydrochloride)]", "false"),
    ("CC(C)=CCC/C(C)=C/CC/C(C)=C/CC/C(C)=C/CC1=C(C)C(=O)c2ccccc2C1=O [Menaquinone-4]", "false"),
    ("C#CCN(C)Cc1ccccc1 [Pargyline (hydrochloride)]", "true"),
]

Would you kindly look at the next entry?
In the record for O=C(O[C@@H]1C[C@@H]2C[C@H]3C[C@H](C1)N2CC3=O)c1c[nH]c2ccccc12 [Dolasetron (Mesylate hydrate)] , is Difference less than -0.4?
true
